- Species: Rattus norvegicus
- Protocol: Open TG-GATES - Regimen: Daily Repeat
- Format: toxicity, organism-based, Sprague-Dawley
- Set-up: regimen Daily Repeat, gender Male, age 6 weeks
- Condition parameters: in vivo, po, 100 mg/kg, […], tissue Blood, route gavage, dose level Low, time 14 day

Compound: CCOc1ccc(NC(C)=O)cc1 [PHENACETIN]
MCV: 58.5 fL
//
Compound: CNC(=C[N+](=O)[O-])NCCSCc1ccc(CN(C)C)o1 [RANITIDINE]
MCV: 60.4 fL
//
Compound: CN/C(=N/CCSCc1nc[nH]c1C)NC#N [CIMETIDINE]
MCV: 59.5 fL
//
Compound: COC(=O)C1=C(C)NC(C)=C(C(=O)OC)C1c1ccccc1[N+](=O)[O-] [NIFEDIPINE]
MCV: 63.6 fL
//
Compound: Cc1nnc2n1-c1ccc(Cl)cc1C(c1ccccc1Cl)=NC2 [TRIAZOLAM]
MCV: 61.6 fL
//
Compound: O=C(OC[C@H]1O[C@@H](OC(=O)c2cc(O)c(O)c(OC(=O)c3cc(O)c(O)c(O)c3)c2)[C@H](OC(=O)c2cc(O)c(O)c(OC(=O)c3cc(O)c(O)c(O)c3)c2)[C@@H](OC(=O)c2cc(O)c(O)c(OC(=O)c3cc(O)c(O)c(O)c3)c2)[C@@H]1OC(=O)c1cc(O)c(O)c(OC(=O)c2cc(O)c(O)c(O)c2)c1)c1cc(O)c(O)c(OC(=O)c2cc(O)c(O)c(O)c2)c1 [TANNIC ACID]
MCV: 62.6 fL

----------
- Organism: Rattus norvegicus
- Protocol: Open TG-GATES - Regimen: Daily Repeat
- Format: toxicity, organism-based, Sprague-Dawley
- Design: regimen Daily Repeat, gender Male, age 6 weeks
- Condition parameters: in vivo, po, 100 mg/kg, […], tissue Blood, route gavage, dose level Low, time 7 day
As shown below, each of these compounds has a reported Ret value.

Compound: CNC(=C[N+](=O)[O-])NCCSCc1ccc(CN(C)C)o1 [RANITIDINE]
Ret [%]: 5.2

Compound: O=C(OC[C@H]1O[C@@H](OC(=O)c2cc(O)c(O)c(OC(=O)c3cc(O)c(O)c(O)c3)c2)[C@H](OC(=O)c2cc(O)c(O)c(OC(=O)c3cc(O)c(O)c(O)c3)c2)[C@@H](OC(=O)c2cc(O)c(O)c(OC(=O)c3cc(O)c(O)c(O)c3)c2)[C@@H]1OC(=O)c1cc(O)c(O)c(OC(=O)c2cc(O)c(O)c(O)c2)c1)c1cc(O)c(O)c(OC(=O)c2cc(O)c(O)c(O)c2)c1 [TANNIC ACID]
Ret [%]: 6.5

Compound: COC(=O)C1=C(C)NC(C)=C(C(=O)OC)C1c1ccccc1[N+](=O)[O-] [NIFEDIPINE]
Ret [%]: 6.8

Compound: CCOc1ccc(NC(C)=O)cc1 [PHENACETIN]
Ret [%]: 5.6

Compound: Cc1nnc2n1-c1ccc(Cl)cc1C(c1ccccc1Cl)=NC2 [TRIAZOLAM]
Ret [%]: 6.1

Compound: CN/C(=N/CCSCc1nc[nH]c1C)NC#N [CIMETIDINE]
Ret [%]: 5.4

----------
- Species on record: Rattus norvegicus
- Protocol: Open TG-GATES - Regimen: Daily Repeat
- Type: toxicity, organism-based, Sprague-Dawley
- Design: regimen Daily Repeat, gender Male, age 6 weeks
- Condition parameters: in vivo, po, 0 mg/kg, 72 h, tissue Blood, route gavage, dose level Control, time 3 day

Compound: CN1C(=O)CCS(=O)(=O)C1c1ccc(Cl)cc1 (configuration not stated)
Hb: 13.4 g/dL

Compound: CCOc1ccc(NC(C)=O)cc1
Hb: 13.2 g/dL

Compound: CNC(=C[N+](=O)[O-])NCCSCc1ccc(CN(C)C)o1
Hb: 13.9 g/dL

Compound: O=C(OC[C@H]1O[C@@H](OC(=O)c2cc(O)c(O)c(OC(=O)c3cc(O)c(O)c(O)c3)c2)[C@H](OC(=O)c2cc(O)c(O)c(OC(=O)c3cc(O)c(O)c(O)c3)c2)[C@@H](OC(=O)c2cc(O)c(O)c(OC(=O)c3cc(O)c(O)c(O)c3)c2)[C@@H]1OC(=O)c1cc(O)c(O)c(OC(=O)c2cc(O)c(O)c(O)c2)c1)c1cc(O)c(O)c(OC(=O)c2cc(O)c(O)c(O)c2)c1
Hb: 13.2 g/dL

Compound: CN(C)CCC(c1ccc(Cl)cc1)c1ccccn1 (configuration not stated)
Hb: 13.4 g/dL

Compound: CN/C(=N/CCSCc1nc[nH]c1C)NC#N
Hb: 13.5 g/dL

Compound: Cc1nnc2n1-c1ccc(Cl)cc1C(c1ccccc1Cl)=NC2
Hb: 13.7 g/dL

----------
- Organism: Rattus norvegicus
- Protocol: Open TG-GATES - Regimen: Daily Repeat
- Type: toxicity, organism-based, Sprague-Dawley
- Design: regimen Daily Repeat, gender Male, age 6 weeks
- Condition parameters: in vivo, po, 300 mg/kg, […], route gavage, dose level Middle, time 28 day

Compound: CN/C(=N/CCSCc1nc[nH]c1C)NC#N [CIMETIDINE]
TERMINAL_BW [g]: 390.1
--
Compound: COC(=O)C1=C(C)NC(C)=C(C(=O)OC)C1c1ccccc1[N+](=O)[O-] [NIFEDIPINE]
TERMINAL_BW [g]: 380.8
--
Compound: O=C(OC[C@H]1O[C@@H](OC(=O)c2cc(O)c(O)c(OC(=O)c3cc(O)c(O)c(O)c3)c2)[C@H](OC(=O)c2cc(O)c(O)c(OC(=O)c3cc(O)c(O)c(O)c3)c2)[C@@H](OC(=O)c2cc(O)c(O)c(OC(=O)c3cc(O)c(O)c(O)c3)c2)[C@@H]1OC(=O)c1cc(O)c(O)c(OC(=O)c2cc(O)c(O)c(O)c2)c1)c1cc(O)c(O)c(OC(=O)c2cc(O)c(O)c(O)c2)c1 [TANNIC ACID]
TERMINAL_BW [g]: 397.8
--
Compound: CNC(=C[N+](=O)[O-])NCCSCc1ccc(CN(C)C)o1 [RANITIDINE]
TERMINAL_BW [g]: 391.7
--
Compound: Cc1nnc2n1-c1ccc(Cl)cc1C(c1ccccc1Cl)=NC2 [TRIAZOLAM]
TERMINAL_BW [g]: 407.3
--
Compound: CCOc1ccc(NC(C)=O)cc1 [PHENACETIN]
TERMINAL_BW [g]: 397.8

----------
- Organism: Rattus norvegicus
- Protocol: Open TG-GATES - Regimen: Daily Repeat
- Assay type: toxicity, organism-based, Sprague-Dawley
- Parameters: regimen Daily Repeat, gender Male, age 6 weeks
- Condition parameters: in vivo, po, 1000 mg/kg, 72 h, route gavage, dose level High, time 3 day
As shown below, each of these compounds has a reported TERMINAL_BW value.

Compound: COC(=O)C1=C(C)NC(C)=C(C(=O)OC)C1c1ccccc1[N+](=O)[O-] [NIFEDIPINE]
TERMINAL_BW, g: 202

Compound: CCOc1ccc(NC(C)=O)cc1 [PHENACETIN]
TERMINAL_BW, g: 201.2

Compound: Cc1nnc2n1-c1ccc(Cl)cc1C(c1ccccc1Cl)=NC2 [TRIAZOLAM]
TERMINAL_BW, g: 221.7

Compound: CN/C(=N/CCSCc1nc[nH]c1C)NC#N [CIMETIDINE]
TERMINAL_BW, g: 228.7

Compound: CNC(=C[N+](=O)[O-])NCCSCc1ccc(CN(C)C)o1 [RANITIDINE]
TERMINAL_BW, g: 237.1

Compound: O=C(OC[C@H]1O[C@@H](OC(=O)c2cc(O)c(O)c(OC(=O)c3cc(O)c(O)c(O)c3)c2)[C@H](OC(=O)c2cc(O)c(O)c(OC(=O)c3cc(O)c(O)c(O)c3)c2)[C@@H](OC(=O)c2cc(O)c(O)c(OC(=O)c3cc(O)c(O)c(O)c3)c2)[C@@H]1OC(=O)c1cc(O)c(O)c(OC(=O)c2cc(O)c(O)c(O)c2)c1)c1cc(O)c(O)c(OC(=O)c2cc(O)c(O)c(O)c2)c1 [TANNIC ACID]
TERMINAL_BW, g: 216.2

----------
As shown below, each of these molecules has a reported Lym value.
- Species: Rattus norvegicus
- Protocol: Open TG-GATES - Regimen: Daily Repeat
- Assay type: toxicity, organism-based, Sprague-Dawley
- Set-up: regimen Daily Repeat, gender Male, age 6 weeks
- Condition parameters: in vivo, po, 0 mg/kg, 72 h, tissue Blood, route gavage, dose level Control, time 3 day
Measurement name: Lym (%)

Molecule: CCCc1cc(=O)[nH]c(=S)[nH]1 [PROPYLTHIOURACIL]
Measurement name: Lym
Unit text: %
Observed value: 73.4
//
Molecule: CC(C)NNC(=O)c1ccncc1 [IPRONIAZID]
Measurement name: Lym
Unit text: %
Observed value: 78.8
//
Molecule: CNC(=C[N+](=O)[O-])NCCSCc1ccc(CN(C)C)o1 [RANITIDINE]
Measurement name: Lym
Unit text: %
Observed value: 79.8
//
Molecule: NC1=NC(=O)C(c2ccccc2)O1 (stereo not drawn) [PEMOLINE]
Measurement name: Lym
Unit text: %
Observed value: 77.6
//
Molecule: COC(=O)C1=C(C)NC(C)=C(C(=O)OC)C1c1ccccc1[N+](=O)[O-] [NIFEDIPINE]
Measurement name: Lym
Unit text: %
Observed value: 80.2
//
Molecule: CN/C(=N/CCSCc1nc[nH]c1C)NC#N [CIMETIDINE]
Measurement name: Lym
Unit text: %
Observed value: 84.6
//
Molecule: CN(C)CCC(c1ccc(Cl)cc1)c1ccccn1 (stereo not drawn) [CHLORPHENIRAMINE]
Measurement name: Lym
Unit text: %
Observed value: 77.6
//
Molecule: Cc1nnc2n1-c1ccc(Cl)cc1C(c1ccccc1Cl)=NC2 [TRIAZOLAM]
Measurement name: Lym
Unit text: %
Observed value: 75.6
//
Molecule: Brc1ccccc1 [BROMOBENZENE]
Measurement name: Lym
Unit text: %
Observed value: 79.8
//
Molecule: CN1C(=O)CCS(=O)(=O)C1c1ccc(Cl)cc1 (stereo not drawn) [CHLORMEZANONE]
Measurement name: Lym
Unit text: %
Observed value: 77.8
//
Molecule: CCOc1ccc(NC(C)=O)cc1 [PHENACETIN]
Measurement name: Lym
Unit text: %
Observed value: 71.2
//
Molecule: O=C(OC[C@H]1O[C@@H](OC(=O)c2cc(O)c(O)c(OC(=O)c3cc(O)c(O)c(O)c3)c2)[C@H](OC(=O)c2cc(O)c(O)c(OC(=O)c3cc(O)c(O)c(O)c3)c2)[C@@H](OC(=O)c2cc(O)c(O)c(OC(=O)c3cc(O)c(O)c(O)c3)c2)[C@@H]1OC(=O)c1cc(O)c(O)c(OC(=O)c2cc(O)c(O)c(O)c2)c1)c1cc(O)c(O)c(OC(=O)c2cc(O)c(O)c(O)c2)c1 [TANNIC ACID]
Measurement name: Lym
Unit text: %
Observed value: 77.6
//
Molecule: Nc1c2c(nc3ccccc13)CCCC2 [TACRINE]
Measurement name: Lym
Unit text: %
Observed value: 80
